# Test system: Hs-578T
# METHOD_DESCRIPTION: Tested for the cytotoxicity against the Breast cancer cell line HS-578T, growth inhibition by 50% is reported
# Format: functional
# TEST_PARAMETERS: Homo sapiens
READOUT_NAME: log10 of GI50 (log10 of the value in µM)
Could you please treat all values as log10 of GI50 in µM?

Previously resolved entries follow.
>>> print(df.to_string())
                                smiles_text  value
0      NS(=O)(=O)c1ccc(/C=C/c2cccc(O)c2)cc1   1.79
1  CN(C)c1ccc(/C=C/c2ccc(S(N)(=O)=O)cc2)cc1   0.48
2     COc1cccc(/C=C/c2ccc(S(N)(=O)=O)cc2)c1   1.41
3      NS(=O)(=O)c1ccc(/C=C/c2ccc(F)cc2)cc1   1.37
4   NS(=O)(=O)c1ccc(/C=C/c2ccc(O)c(O)c2)cc1   1.41
5  COc1cc(/C=C/c2ccc(S(N)(=O)=O)cc2)cc(OC)c1   1.30

Next:
Q: # query: log10 of GI50 of entry `NS(=O)(=O)c1ccc(/C=C/c2ccc(O)cc2)cc1`
Result: 1.46

* * *

# System: HT-29
# METHOD_DESCRIPTION: Tested for the cytotoxicity against the colon cancer cell line HT29, growth inhibition by 50% is reported
# Assay type: functional
# TEST_PARAMETERS: Homo sapiens
Listing of recorded log10 of GI50 by entry.
// units: µM (pre-log); metric: GI50; scale: log10

In [3]: df
Out[3]:
                                smiles_text  value
0     COc1cccc(/C=C/c2ccc(S(N)(=O)=O)cc2)c1  -0.26
1   NS(=O)(=O)c1ccc(/C=C/c2ccc(O)c(O)c2)cc1   1.55
2  COc1cc(/C=C/c2ccc(S(N)(=O)=O)cc2)cc(OC)c1   1.21

Now consider the entry below.
Q: // query log10 of GI50 value for entry `NS(=O)(=O)c1ccc(/C=C/c2cccc(O)c2)cc1`
Result: 1.64

* * *

# Test system: MOLT-4
# METHOD_DESCRIPTION: Tested for the cytotoxicity against the Leukemia cell line MOLT-4, growth inhibition by 50% is reported
# Format: functional
# TEST_PARAMETERS: Homo sapiens
GI50 strictly under 20 µM means 1; at 20 µM or over means 0.

                                smiles_text  class_assignment
0  COc1cc(/C=C/c2ccc(S(N)(=O)=O)cc2)cc(OC)c1                 1
1  CN(C)c1ccc(/C=C/c2ccc(S(N)(=O)=O)cc2)cc1                 0
2     COc1cccc(/C=C/c2ccc(S(N)(=O)=O)cc2)c1                 0

Q: Decide: GI50 of `NS(=O)(=O)c1ccc(/C=C/c2ccc(O)c(O)c2)cc1` strictly below 20 µM?
Result: 1

Q: Lab log: compare recorded GI50 with 20 µM; is it strictly lower for `NS(=O)(=O)c1ccc(/C=C/c2ccc(F)cc2)cc1` ?
Result: 1

Q: Confirm or reject: GI50 of `NS(=O)(=O)c1ccc(/C=C/c2ccc(O)cc2)cc1` lies strictly below 20 µM
Result: 0

* * *

# System: CAKI-1
# METHOD_DESCRIPTION: Tested for the cytotoxicity against the Renal cancer cell line CAKI-1, growth inhibition by 50% is reported
# Type: functional
# TEST_PARAMETERS: Homo sapiens
READOUT_NAME: GI50
Kindly report the value followed by its unit.

                                smiles_text    value
0      NS(=O)(=O)c1ccc(/C=C/c2ccc(O)cc2)cc1  5.59 µM
1   NS(=O)(=O)c1ccc(/C=C/c2ccc(O)c(O)c2)cc1  29.1 µM
2      NS(=O)(=O)c1ccc(/C=C/c2cccc(O)c2)cc1  50.2 µM
3     COc1cccc(/C=C/c2ccc(S(N)(=O)=O)cc2)c1  14.7 µM
4  COc1cc(/C=C/c2ccc(S(N)(=O)=O)cc2)cc(OC)c1    19 µM

Q: Item under review: `CN(C)c1ccc(/C=C/c2ccc(S(N)(=O)=O)cc2)cc1` . Reported GI50?
Result: 50.3 µM

Q: Reported GI50, molecule `NS(=O)(=O)c1ccc(/C=C/c2ccc(F)cc2)cc1` : ____
Result: 36.3 µM

* * *

# System: NCI-H522
# METHOD_DESCRIPTION: Tested for the cytotoxicity against the Non-small cell lung cancer cell line NCI-H522 growth inhibition by 50% is reported
# Assay type: functional
# TEST_PARAMETERS: Homo sapiens
READOUT_NAME: GI50 (µM)
Lab book: enter the figure in µM, no units written.

Q: Fill in the blank: the reported GI50 of `NS(=O)(=O)c1ccc(/C=C/c2ccc(F)cc2)cc1` is ____.
Result: 4.81

Q: Using the record for `NS(=O)(=O)c1ccc(/C=C/c2ccc(O)c(O)c2)cc1` , report its GI50.
Result: 2.25

Q: Entry `CN(C)c1ccc(/C=C/c2ccc(S(N)(=O)=O)cc2)cc1` : reported GI50 = ?
Result: 6.88

Q: Record request: GI50 value, item `NS(=O)(=O)c1ccc(/C=C/c2cccc(O)c2)cc1`
Result: 12.2

Q: Data request, read-out GI50, for `NS(=O)(=O)c1ccc(/C=C/c2ccc(O)cc2)cc1`
Result: 13.8

* * *

# System: K562
# METHOD_DESCRIPTION: Tested for the cytotoxicity against the Leukemia cell line K-562, growth inhibition by 50% is reported
# Format: functional
# TEST_PARAMETERS: Homo sapiens
READOUT_NAME: GI50 (µM)
Give your result in µM as a bare value.

Some solved entries appear below for comparison.
In [3]: df
Out[3]:
                                smiles_text  unit_annotation  value
0      NS(=O)(=O)c1ccc(/C=C/c2ccc(F)cc2)cc1               µM   14.9
1     COc1cccc(/C=C/c2ccc(S(N)(=O)=O)cc2)c1               µM   20.6
2      NS(=O)(=O)c1ccc(/C=C/c2cccc(O)c2)cc1               µM   43.4
3  COc1cc(/C=C/c2ccc(S(N)(=O)=O)cc2)cc(OC)c1               µM   28.7
4   NS(=O)(=O)c1ccc(/C=C/c2ccc(O)c(O)c2)cc1               µM   35.3

Lab note: next compound to report on.
Q: GI50 for `NS(=O)(=O)c1ccc(/C=C/c2ccc(O)cc2)cc1` ?
Result: 24.9

* * *

# Tested on: UACC-62
# METHOD_DESCRIPTION: Tested for the cytotoxicity against the Melanoma cell line UACC-62, growth inhibition by 50% is reported
# Assay type: functional
# TEST_PARAMETERS: Homo sapiens
READOUT_NAME: GI50 (µM)
# number only, unit µM dropped from output

Past entries and their recorded results:
>>> print(df.to_string())
                                smiles_text  target_desc  readout_name  value
0     COc1cccc(/C=C/c2ccc(S(N)(=O)=O)cc2)c1      UACC-62          GI50     14
1  COc1cc(/C=C/c2ccc(S(N)(=O)=O)cc2)cc(OC)c1      UACC-62          GI50   15.4
2      NS(=O)(=O)c1ccc(/C=C/c2cccc(O)c2)cc1      UACC-62          GI50   18.6
3      NS(=O)(=O)c1ccc(/C=C/c2ccc(O)cc2)cc1      UACC-62          GI50    3.4

Next compound, GI50 to be filled in.
Q: Fill in the blank: the reported GI50 of `NS(=O)(=O)c1ccc(/C=C/c2ccc(O)c(O)c2)cc1` is ____.
Result: 23.3

* * *

# System: HT-29
# METHOD_DESCRIPTION: Tested for the cytotoxicity against the colon cancer cell line HT29, growth inhibition by 50% is reported
# Type: functional
# TEST_PARAMETERS: Homo sapiens
Below: a set of entries, each annotated with reported GI50.
Write it as a number; the unit µM goes unstated.

In [3]: df
Out[3]:
                            smiles_text  value
0  NS(=O)(=O)c1ccc(/C=C/c2ccc(O)cc2)cc1   17.8
1  NS(=O)(=O)c1ccc(/C=C/c2ccc(F)cc2)cc1   29.4

Could you now consider this next molecule?
Q: Value lookup for GI50; key = `CN(C)c1ccc(/C=C/c2ccc(S(N)(=O)=O)cc2)cc1`
Result: 30.8
